- EXPERIMENTAL TARGET: porcine lipase (Sus scrofa, UniProt P00591)
- Sequence (P00591 1-450): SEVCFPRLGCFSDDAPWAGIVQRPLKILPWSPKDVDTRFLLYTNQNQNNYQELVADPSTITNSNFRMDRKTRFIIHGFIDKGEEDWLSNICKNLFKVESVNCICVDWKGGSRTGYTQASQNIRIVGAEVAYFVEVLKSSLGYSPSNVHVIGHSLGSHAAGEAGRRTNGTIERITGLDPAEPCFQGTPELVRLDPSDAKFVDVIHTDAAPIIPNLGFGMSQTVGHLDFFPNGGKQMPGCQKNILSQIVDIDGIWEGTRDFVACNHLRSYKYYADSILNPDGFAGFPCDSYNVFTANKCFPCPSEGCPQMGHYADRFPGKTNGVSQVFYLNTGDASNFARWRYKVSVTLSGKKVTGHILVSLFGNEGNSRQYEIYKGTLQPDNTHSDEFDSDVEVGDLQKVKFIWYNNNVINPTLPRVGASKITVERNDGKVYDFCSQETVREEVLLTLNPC
- TEST SUMMARY: Hydrolysis by pancreatic lipase, organic solution assay
- Assay type: in vitro ADME
- ASSAY CONTEXT: 30° C., tamyl alcohol, Bis-Tris propane buffer pH 7.8, 300 mg fat, unit assumed
MEASUREMENT TYPE: Hydrolysis by pancreatic lipase, Organic Solution Assay 24 hr (%)

Example results:
CCCCCCCCCCCCCCCCCCCCOC(=O)CCCCCCC [Arachidyl caprylate]    7.6
CCCCCCCC/C=C\CCCCCCCC(=O)OCC(COC(=O)CCCCCCC/C=C\CCCCCCCC)OC(=O)CCCCCCC/C=C\CCCCCCCC [Triolein, reference compound]    69.2

A. CCCCCCCCCCCCCCCCCCCCOC(=O)CCCCC [Arachidyl caproate]
B. CCCCCCCCCCCCCCCCCCCC(=O)OCCCCCC [Hexyl arachidate]
Qu. Lab note: check whether A or B shows the higher recorded Hydrolysis by pancreatic lipase, Organic Solution Assay 24 hr. Please identify the chosen entry by its label.
Ans. B
